Attribution: patent US20240317727A1

target: purified recombinant human HSF1 (HSF1 DNA binding domain) (Homo sapiens, UniProt Q00613); assay: Melting temperature of HSF1 DBD with HSF1 degrader compounds (Sypro orange); conditions: 12.5 micromolar compound, 5 micromolar HSF1 DBD, compared to DMSO; read-out: ΔTm (° C.)
Sequence (Q00613 15-120): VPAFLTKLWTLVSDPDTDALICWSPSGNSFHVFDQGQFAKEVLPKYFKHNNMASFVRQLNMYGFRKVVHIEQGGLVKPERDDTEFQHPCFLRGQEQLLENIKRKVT
Quantity: ΔTm at 12.5 µM (°C)

P = N#Cc1ccc(NC(=O)Nc2ccc3c(c2)S(=O)(=O)C=C3)cc1C1CCCC1 [Compound 260]
Q = N#Cc1ccc(NC(=O)Nc2ccc3c(c2)S(=O)(=O)C=C3)nc1 [Compound 266]
Given P and Q , report the one with the higher recorded ΔTm at 12.5 µM. Give the chosen item's label as your response. P
(P: 0.5 °C, Q: -0.64 °C)

I = N#Cc1ccc(NC(=O)Nc2ccc3c(c2)CCCS3(=O)=O)cc1 [Compound 282]
II = O=C(Nc1ccc(F)cc1)Nc1ccc(Cl)c(S(=O)(=O)C(F)(F)F)c1 [Compound 54]
Given I and II , report the one with the higher recorded ΔTm at 12.5 µM. Give the chosen item's label as your response. II
(II: 2.1 °C, I: -0.97 °C)

A = N#Cc1ccc(NC(=O)Nc2cccc(S(=O)(=O)C(F)(F)F)c2)cc1 [Compound 275]
B = N#Cc1cccc(NC(=O)Nc2ccc(Cl)c([N+](=O)[O-])c2)c1 [Compound 238]
C = N#Cc1ncc(NC(=O)Nc2ccc3c(c2)S(=O)(=O)C=C3)cn1 [Compound 269]
Reorder the items by ΔTm at 12.5 µM, least to greatest. // format: requested-order list of labels C, A, B

I = N#Cc1ccc(NC(=O)Nc2ccc3c(c2)C=CS3(=O)=O)s1 [Compound 272]
II = N#Cc1ccc(NC(=O)Nc2ccc3c(c2)C=CS3(=O)=O)o1 [Compound 271]
Given I and II , report the one with the higher recorded ΔTm at 12.5 µM. Give the chosen item's label as your response. I
(I: 0.86 °C, II: 0.02 °C)

a = N#Cc1ccc(NC(=O)Nc2ccc3c(c2)C(=O)CCC3)cc1 [Compound 278]
b = COc1cc(NC(=O)Nc2ccc(Cl)c(S(=O)(=O)C(F)(F)F)c2)ccc1C#N [Compound 248]
Given a and b , report the one with the higher recorded ΔTm at 12.5 µM. Give the chosen item's label as your response. b
(b: 2.95 °C, a: -0.95 °C)

P = N#Cc1ccc(NC(=O)Nc2cccc(-c3nnn[nH]3)c2)cc1 [Compound 280]
Q = N#Cc1ccc(NC(=O)Nc2ccc3c(c2)S(=O)(=O)C=C3)cc1C1CC1 [Compound 259]
R = N#Cc1ccc(NC(=O)Nc2ccc3nsnc3c2)cc1 [Compound 245]
S = N#Cc1ccc(NC(=O)Nc2ccc3c(c2)S(=O)(=O)c2ccccc2-3)cc1 [Compound 277]
Reorder the items by ΔTm at 12.5 µM, least to greatest. // format: requested-order list of labels S, P, Q, R
(S: -2.3 °C, P: 0.01 °C, Q: 1.25 °C, R: 2.74 °C)

a = N#Cc1cnc(NC(=O)Nc2ccc3c(c2)S(=O)(=O)C=C3)nc1 [Compound 270]
b = N#Cc1ccc(NC(=O)Nc2ccc(CCN3CCOCC3)c(S(=O)(=O)C(F)(F)F)c2)cc1 [Compound 289]
c = COc1cc(NC(=O)Nc2ccc3nsnc3c2)ccc1C#N [Compound 250]
d = N#Cc1ccc(NC(=O)Nc2ccc(Cl)c(S(=O)(=O)C(F)(F)F)c2)c(OCCN2CCOCC2)c1 [Compound 299]
Reorder the items by ΔTm at 12.5 µM, least to greatest. // format: requested-order list of labels a, d, c, b

a = COc1cc(NC(=O)Nc2ccc3occc3c2)ccc1C#N [Compound 251]
b = N#Cc1ccc(NC(=O)Nc2ccc3c(c2)S(=O)(=O)CCC3)cc1 [Compound 279]
c = N#Cc1ccc(NC(=O)Nc2ccc3occc3c2)cc1 [Compound 246]
d = CS(=O)(=O)Nc1cccc(NC(=O)Nc2ccc(C#N)cc2)c1 [Compound 276]
e = CC(=O)N1CCc2ccc(NC(=O)Nc3ccc(C#N)cc3)cc21 [Compound 281]
Rank the 5 compounds: largest ΔTm at 12.5 µM first, smallest last. // format: requested-order list of labels c, a, b, d, e

----------
target: recombinant HSF1 DNA-binding domain (DBD) (Homo sapiens, UniProt Q00613); assay: Differential Scanning Fluorimetry (DSF), HSF1 DBD melting temperature; conditions: Table 3; 5 μM HSF1 DBD, 25PM Compound; positive = stabilizes, negative = destabilizes HSF1
Quantity: ΔTm at 25 µM (°C)

Worked examples, 2 compounds total:
{"Compound": "O=c1c(Nc2ccc(F)c(F)c2)c(Nc2ccc(Cl)c(S(=O)(=O)C(F)(F)F)c2)c1=O [Compound 016]", "Unit info": "°C", "ΔTm at 25 µM": 2.75}
{"Compound": "CN(C)CCc1cc(C#N)ccc1NC(=O)Nc1ccc(Cl)c(S(=O)(=O)C(F)(F)F)c1 [Compound 296]", "Unit info": "°C", "ΔTm at 25 µM": -5.21}

1 = O=C(Nc1ccc(Cl)cc1)Nc1ccc(Cl)c([N+](=O)[O-])c1 [Compound 048]
2 = O=C(Nc1ccc(F)cc1)Nc1ccc(Br)c(C(F)(F)F)c1 [Compound 005]
Just tell me: smaller ΔTm at 25 µM value, 1 or 2 ? Give the chosen item's label as your response. 1

----------
target: recombinant HSF1 DNA-binding domain (DBD) (Homo sapiens); assay: Differential Scanning Fluorimetry (DSF), HSF1 DBD melting temperature; details: Table 3; 5 μM HSF1 DBD, 25PM Compound; positive = stabilizes, negative = destabilizes HSF1
Quantity: ΔTm at 25 µM (°C)

{"Sample smiles": "Cc1cccc(NC(=O)Nc2ccc(Cl)c([N+](=O)[O-])c2)c1", "Study target": "recombinant HSF1 DNA-binding domain (DBD) (Homo sapiens)", "Unit info": "°C", "ΔTm at 25 µM": 5.75}
{"Sample smiles": "O=C(Nc1ccc(F)cc1)Nc1ccc(Cl)c(S(=O)(=O)C(F)(F)F)c1", "Study target": "recombinant HSF1 DNA-binding domain (DBD) (Homo sapiens)", "Unit info": "°C", "ΔTm at 25 µM": 2.9}
{"Sample smiles": "CN(C(=O)Nc1ccc(Cl)c([N+](=O)[O-])c1)c1ccc(F)cc1", "Study target": "recombinant HSF1 DNA-binding domain (DBD) (Homo sapiens)", "Unit info": "°C", "ΔTm at 25 µM": 0.67}
{"Sample smiles": "O=C(Nc1ccc(Cl)c(Cl)c1)Nc1ccc(Cl)c([N+](=O)[O-])c1", "Study target": "recombinant HSF1 DNA-binding domain (DBD) (Homo sapiens)", "Unit info": "°C", "ΔTm at 25 µM": 2.33}
{"Sample smiles": "Cc1cccc(NC(=O)Nc2cccc(Cl)c2)c1", "Study target": "recombinant HSF1 DNA-binding domain (DBD) (Homo sapiens)", "Unit info": "°C", "ΔTm at 25 µM": 2.5}

A = CC(=O)Nc1cc(NC(=O)Nc2ccc(F)cc2)ccc1Cl
B = O=C(Nc1cccc(Cl)c1)Nc1cccc([N+](=O)[O-])c1
Given A and B , report the one with the higher recorded ΔTm at 25 µM. Give the chosen item's label as your response. B
(B: 2.5 °C, A: 0.67 °C)

----------
target: purified recombinant human HSF1 (HSF1 DNA binding domain) (Homo sapiens); experiment: Melting temperature of HSF1 DBD with HSF1 degrader compounds (Sypro orange); settings: 12.5 micromolar compound, 5 micromolar HSF1 DBD, compared to DMSO; read-out: ΔTm (° C.)
Quantity: ΔTm at 12.5 µM (°C)

{"Compound": "N#Cc1ccc(NC(=O)Nc2ccc(Cl)c(S(=O)(=O)C(F)(F)F)c2)c(CCN2CCOCC2)c1 [Compound 298]", "Study target": "purified recombinant human HSF1 (HSF1 DNA binding domain) (Homo sapiens)", "Quantity": "ΔTm at 12.5 µM", "Numeric result": 1}

a = N#Cc1cccc(NC(=O)Nc2ccc3c(c2)S(=O)(=O)C=C3)n1 [Compound 267]
b = N#Cc1ccc(NC(=O)Nc2ccc(F)cc2)cc1 [Compound 255, 1-(4-cyanophenyl)-3-(4-fluorophenyl)urea]
c = CC(C)c1cc(NC(=O)Nc2ccc3c(c2)S(=O)(=O)C=C3)ccc1C#N [Compound 263]
Rank the 3 compounds: largest ΔTm at 12.5 µM first, smallest last. // format: requested-order list of labels b, c, a
(b: 2.22 °C, c: 1.25 °C, a: -0.19 °C)

1 = COc1cc(NC(=O)Nc2ccc3c(c2)S(=O)(=O)C=C3)ccc1C#N [Compound 249]
2 = CCc1cc(NC(=O)Nc2ccc3c(c2)S(=O)(=O)C=C3)ccc1C#N [Compound 262]
Just tell me: smaller ΔTm at 12.5 µM value, 1 or 2 ? Give the chosen item's label as your response. 1

I = N#Cc1ccc(NC(=O)Nc2ccc(Cl)c([N+](=O)[O-])c2)cc1 [Compound 239]
II = N#Cc1ccc(NC(=O)Nc2cccc([N+](=O)[O-])c2)cc1 [Compound 273, 1-(4-cyanophenyl)-3-(3-nitrophenyl)urea]
Just tell me: smaller ΔTm at 12.5 µM value, I or II ? Give the chosen item's label as your response. II
(II: 1.15 °C, I: 3.13 °C)
